Measured protein stability index, listed per entry.
B1: CLK3 (parent)
chain: FGEDYYGPSRSRHRRRSRERGPYR

Variants of: B1
protocolSummary: protein stability index of a GFP-peptide fusion (GPS, HEK-293T) (PSI 1-6); higher = more stable;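 note: lentivirally expressed fusions sorted by FACS into six bins by GFP to DsRed ratio, PSI derived from sequencing read proportions per bin multiplied by bin number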
testSettings: c terminus: a fixed tail appended

input: Output measured protein stability index for this item: E3H
output: 4.21

input: Output measured protein stability index for this item: R16H
output: 2.35
